# tested.on: DR4w4 (DRB1*0401) (Homo sapiens, UniProt P01903+P01911, A100K/A169T/F76Y/I96L/K127E/L162R/M171V/N62H/P40V/Q125Y/R42H/S133A/S149N/S66Y/V115G/V209L/W38E)
# procedure.text: biochemical
# Type: binding
The entries below are paired with their reported pIC50.
Worth noting: pIC50 values are minus log10 of concentrations stated in mol/L.

compound | assay.value
CSCC[C@H](NC(=O)[C@H](CS)NC(=O)[C@H](CC(N)=O)NC(=O)[C@H](CC(=O)O)NC(=O)[C@H](CCCCN)NC(=O)[C@H](CC(N)=O)NC(=O)CN)C(=O)N[C@H](C(=O)N[C@@H](Cc1ccc(O)cc1)C(=O)N[C@H](C(=O)N[C@@H](C)C(=O)N[C@@H](Cc1c[nH]c2ccccc12)C(=O)N[C@@H](CC(=O)O)C(=O)N[C@@H](CO)C(=O)N[C@H](C(=O)O)C(C)C)C(C)C)[C@@H](C)O [Peptide 1601.09] | 5.64
CC(C)C[C@H](NC(=O)[C@H](CC(C)C)NC(=O)[C@@H]1CCCN1C(=O)[C@@H](N)CC(N)=O)C(=O)NCC(=O)N[C@@H](C)C(=O)N[C@@H](C)C(=O)N[C@H](C(=O)N1CCC[C@H]1C(=O)N[C@H](C(=O)NCC(=O)N[C@@H](CC(N)=O)C(=O)N[C@@H](CC(N)=O)C(=O)N[C@@H](CCCCN)C(=O)N[C@@H](CCCNC(=N)N)C(=O)O)[C@@H](C)O)[C@@H](C)O [Peptide 89.0165] | 5.91

Using known records, supply pIC50 for CC[C@H](C)[C@H](NC(=O)[C@H](Cc1c[nH]cn1)NC(=O)[C@H](C)NC(=O)[C@H](Cc1ccc(O)cc1)NC(=O)[C@H](CC(C)C)NC(=O)[C@@H](NC(=O)[C@H](C)NC(=O)[C@@H]1CCCN1C(=O)[C@H](CCCCN)NC(=O)[C@@H](NC(=O)[C@H](CC(C)C)NC(=O)[C@@H](NC(=O)[C@H](CCCCN)NC(=O)[C@@H](N)Cc1ccccc1)[C@@H](C)O)[C@@H](C)CC)[C@@H](C)O)C(=O)N[C@@H](CCC(N)=O)C(=O)O [Peptide 89.0082]
6.91
